Source of measurements: PubChem BioAssay

Listed below: z-score values for each entry.
# RUN_DESCRIPTION: resazurin metabolic signal in A549 cells – cell-based, resazurin fluorescence, 24 h, PK04 Diversity Set, profiling panel (AID 1171); note: test concentration not given here
# EXPERIMENTAL_PARAMETERS: A549 viability, higher = more signal, called active from +8 up or from −8 down
Please respond with just the number, no unit label.

Recorded results for 5 compounds are shown here.
COMPOUND | VALUE_OBSERVED
CCCCCC1=C2CNC(C)(C(=O)OC)C=C2C(C)C1=O (stereo unspecified) | -0.722
CCN(CC)c1ccc(N2CC=CC34O[C@@H]5/C=C\CCCOC(=O)C5[C@H]3C(=O)N(C(C)CO)[C@@H]4C2=O)cc1 (stereo partly specified) | 0.0032
COCC(=C=CC[C@H](O)c1ccccc1OCCO)C[C@H](O)c1ccccn1 | -0.0836
CCOc1cc(C(O)C2C=CC3C(=O)NC(=O)C3N2Nc2ccc(Cl)cc2Cl)ccc1O (stereo unspecified) | -0.873
COc1cc(NN2C(C(O)c3cc(OC)c(OC)c(OC)c3)C=CC3C(=O)N(C)C(=O)C32)cc(OC)c1OC (stereo unspecified) | -0.4

Let's switch to this compound now.
stdin: Output z-score of C=CCN1C(=O)[C@]2(CCC(=O)OC(C)(C)C)N=C(c3ccc(OCCCO)cc3)O[C@@H]2c2ccccc21
stdout: -2.21
